Here the recorded inhibition is given for each entry.
Target: Alpha-2C adrenergic receptor (Homo sapiens)
Details: Compound concentration 10 µM
Description: PDSP Primary Binding target: ADRA2C - Compounds are tested at 10 uM concentration, plate are incubated at room temperature in the dark for 90 minutes. Reaction are stopped by vacuum filtration onto 0.3% polyethyleneimine soaked filter mats using Filtermate harvester. Scintilation cocktail is then melted onto microwave-dried filters on a hot plate and the radio activity is counted in Microbia counter.
metric: inhibition (%)

NCCc1cn(S(=O)(=O)c2c(Cl)nc3sccn23)c2ccccc12	42.5
O=C(O)CC/C=C\C[C@@H]1CO[C@H](c2ccccc2Cl)O[C@@H]1c1ccccc1O	-7.17
Cc1cc(NC(=O)NCCN2CCC(O)(Cc3ccccc3)CC2)c2ccccc2n1	37.3
CCCCN(CCCC)C(=O)CN1C[C@@H](c2ccc3c(c2)OCO3)[C@H](C(=O)O)[C@H]1c1ccc(OC)cc1	-5.48
Cc1nc(-c2ccc(-c3ccc(C(=O)N4CCc5cc6c(cc54)C4(CCN(C)CC4)CO6)cc3)c(C)c2)no1	38
CN1CCC(C(=O)c2cccc(NC(=O)c3c(F)cc(F)cc3F)n2)CC1	6.36
CC(C)[C@H](CO)Nc1nc(Nc2cccc(Cl)c2)c2ncn(C(C)C)c2n1	28.4
O=C1N/C(=N/c2ccccc2F)S/C1=C\c1ccc(C(=O)O)cc1	2.98
Cc1nc(C(=O)N2CCC[C@H]2Cc2nnc(-c3ccccc3)o2)c(-c2ccccc2F)s1	-1.4
NC[C@H](O)c1ccc(O)c(O)c1	79.4
FC(F)(F)c1c(N2CCC(c3ccccc3)CC2)ccn2c(CC3CC3)nnc12	1.28
Cc1c(F)cccc1NC(=O)Nc1ccc(Cl)c(S(=O)(=O)[C@H]2CCCNC2)c1O	-6.11
COc1ccc(OC(F)(F)F)cc1CN[C@H]1CCCN[C@H]1c1ccccc1	9.77
CC(C)NCC(O)COc1cccc2[nH]ccc12 (stereo unspecified)	1.35
CNC[C@H](O)c1cccc(O)c1	32.8
CCc1cc2c(c(CC)n1)CCC(=O)N2Cc1ccc(-c2ccccc2-c2nnn[nH]2)cc1	5.68
S=C(NCCCc1c[nH]cn1)NCCCN(Cc1ccc(Cl)c(Cl)c1)c1ccc(Br)cn1	101
CN1C(=O)[C@@H](NC(=O)c2cc3ccccc3[nH]2)N=C(c2ccccc2)c2ccccc21	-0.17
C[C@@H](NCCCc1cccc(C(F)(F)F)c1)c1cccc2ccccc12	77.9
CN1CCN(c2ccc(Nc3c4ccccc4nc4ccccc34)cc2)CC1	105
Cc1ccc2c(c1)c1c(n2CCc2ccc(C)nc2)CCN(C)C1	73.6

###

Biological target: 5-hydroxytryptamine receptor 1D (Homo sapiens)
Conditions: Compound concentration 10 µM
Description: PDSP Primary Binding target: HTR1D - Compounds are tested at 10 uM concentration, plate are incubated at room temperature in the dark for 90 minutes. Reaction are stopped by vacuum filtration onto 0.3% polyethyleneimine soaked filter mats using Filtermate harvester. Scintilation cocktail is then melted onto microwave-dried filters on a hot plate and the radio activity is counted in Microbia counter.
metric: inhibition (%)

Cc1ccccc1C(=O)Nc1ccc(C(=O)N2CCCC(O)c3cc(Cl)ccc32)c(C)c1 (centres undefined)	88.5
N[C@H](C(=O)O)c1ccc(C(=O)O)c(C(=O)O)c1	19.2
Nc1nc(NCCc2ccc(O)cc2)nc2nc(-c3ccco3)nn12	19.7
Cc1nc(-c2ccc(-c3ccc(C(=O)N4CCc5cc6c(cc54)C4(CCN(C)CC4)CO6)cc3)c(C)c2)no1	90.9
CN1CCN(c2ccc(Nc3c4ccccc4nc4ccccc34)cc2)CC1	54.3
NCCc1cn(S(=O)(=O)c2c(Cl)nc3sccn23)c2ccccc12	81.9
COc1ccc(S(=O)(=O)N2c3ccc(Cl)cc3[C@](O)(c3ccccc3Cl)[C@@H]2C(=O)N2CCC[C@H]2C(N)=O)cc1OC	6.02
O=C(c1cc2c(cc1F)OC(c1ccc(F)cc1)(c1ccc(Cl)cc1Cl)O2)N1CCOCC1 (centres undefined)	20.9
COC(=O)C1=C(C)NC(C)=C(C(=O)OCCCN2CCC(c3ccccc3)(c3ccccc3)CC2)[C@H]1c1cccc([N+](=O)[O-])c1	75.9

###

Target: Translocator protein (Homo sapiens) (UniProt P30536)
Sequence (P30536 whole entry): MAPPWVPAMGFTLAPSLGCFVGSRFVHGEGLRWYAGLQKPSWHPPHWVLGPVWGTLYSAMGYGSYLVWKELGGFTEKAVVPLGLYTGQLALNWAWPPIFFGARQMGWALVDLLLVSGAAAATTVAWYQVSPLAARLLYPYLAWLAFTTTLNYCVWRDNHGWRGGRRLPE
Settings: Compound concentration 10 µM
Description: PDSP Primary Binding target: TSPO - Compounds are tested at 10 uM concentration, plate are incubated at room temperature in the dark for 90 minutes. Reaction are stopped by vacuum filtration onto 0.3% polyethyleneimine soaked filter mats using Filtermate harvester. Scintilation cocktail is then melted onto microwave-dried filters on a hot plate and the radio activity is counted in Microbia counter.
Would you please tag the item 1 when its inhibition is 30% or above, and 0 when it is below?

CCC[C@H](Oc1cc(C)c(-n2cc(C(F)(F)F)cn2)c(C)c1)c1ccc(C(=O)NCCC(=O)O)cc1	0
CN[C@@H]1CCc2[nH]c3ccc(C(N)=O)cc3c2C1	0
Cc1cc(C)c(N)c(C#Cc2cccc(F)c2)n1	1
CN(C(=O)Cc1ccc(Cl)c(Cl)c1)C(CN1CCCC1)c1cccc(OCC(=O)O)c1 (centres undefined)	0
O=S1(=O)c2cccc3cccc(c23)N1CCCN1CCN(c2ccc(F)cc2)CC1	0
CCCCN(CCCC)C(=O)CN1C[C@@H](c2ccc3c(c2)OCO3)[C@H](C(=O)O)[C@H]1c1ccc(OC)cc1	1
CN1CCN(c2ccc(Nc3c4ccccc4nc4ccccc34)cc2)CC1	0
O=C(O)Cn1c(C(=O)Nc2nc(-c3ccccc3Cl)cs2)cc2ccccc21	0
CCCSc1nc(N[C@@H]2C[C@H]2c2ccc(F)c(F)c2)c2nnn([C@@H]3C[C@H](OCCO)[C@@H](O)[C@H]3O)c2n1	1

###

# inhibition per record follows
Target: D(1A) dopamine receptor (Homo sapiens) (UniProt P21728)
Sequence (P21728 whole entry): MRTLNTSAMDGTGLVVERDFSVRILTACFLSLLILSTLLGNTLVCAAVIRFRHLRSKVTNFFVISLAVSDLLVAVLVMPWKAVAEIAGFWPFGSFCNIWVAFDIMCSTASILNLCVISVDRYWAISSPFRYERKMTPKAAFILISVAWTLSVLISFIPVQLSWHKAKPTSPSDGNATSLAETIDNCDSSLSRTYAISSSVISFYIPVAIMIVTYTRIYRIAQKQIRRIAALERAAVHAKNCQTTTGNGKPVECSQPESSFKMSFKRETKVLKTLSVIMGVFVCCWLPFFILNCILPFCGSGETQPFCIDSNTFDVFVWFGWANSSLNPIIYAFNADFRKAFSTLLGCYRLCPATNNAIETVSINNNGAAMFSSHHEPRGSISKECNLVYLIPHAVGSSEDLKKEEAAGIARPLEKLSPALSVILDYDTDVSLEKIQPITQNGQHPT
Conditions: Compound concentration 10 µM
Description: PDSP Primary Binding target: DRD1 - Compounds are tested at 10 uM concentration, plate are incubated at room temperature in the dark for 90 minutes. Reaction are stopped by vacuum filtration onto 0.3% polyethyleneimine soaked filter mats using Filtermate harvester. Scintilation cocktail is then melted onto microwave-dried filters on a hot plate and the radio activity is counted in Microbia counter.
metric: inhibition (%)

O=C(O)CC/C=C\C[C@@H]1CO[C@H](c2ccccc2Cl)O[C@@H]1c1ccccc1O	-0.4
Cc1c(C(=O)NC2CCCCC2)sc2nc3ccc(N)cc3n12	7.6
CCc1nn(CCCN2CCN(c3cccc(Cl)c3)CC2)c(=O)n1CCOc1ccccc1	77.7
Oc1ccc2c3c1O[C@H]1c4[nH]c5c(c4C[C@@]4(O)[C@@H](C2)N(CC2CC2)CC[C@]314)C[C@@]1(O)[C@H]2Cc3ccc(O)c4c3[C@@]1(CCN2CC1CC1)[C@H]5O4	33.5

###

Molecular target: Sigma non-opioid intracellular receptor 1 (Homo sapiens) (UniProt Q99720)
Sequence (Q99720 whole entry): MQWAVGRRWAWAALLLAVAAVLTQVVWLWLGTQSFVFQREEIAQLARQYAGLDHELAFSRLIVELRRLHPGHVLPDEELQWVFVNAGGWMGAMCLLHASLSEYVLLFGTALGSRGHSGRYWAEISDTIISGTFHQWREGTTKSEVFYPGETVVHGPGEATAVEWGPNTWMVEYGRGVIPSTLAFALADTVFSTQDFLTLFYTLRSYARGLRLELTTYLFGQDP
Conditions: Compound concentration 10 µM; call rule not given here
Classes used: TRUE for active, FALSE for inactive

O=C1N/C(=N/c2ccccc2F)S/C1=C\c1ccc(C(=O)O)cc1	FALSE
C[C@H](Cc1cc2c(c(C(N)=O)c1)N(CCCO)CC2)NCCOc1ccccc1OCC(F)(F)F	FALSE
O=C(Cc1ccccc1)Nc1nc2ccc(Cl)cc2c2nc(-c3ccco3)nn12	FALSE
COc1ccc(NC(=O)c2ccc(-c3ccc(-c4noc(C)n4)cc3C)cc2)cc1OCCN(C)C	TRUE
CCC[C@H](Oc1cc(C)c(-n2cc(C(F)(F)F)cn2)c(C)c1)c1ccc(C(=O)NCCC(=O)O)cc1	FALSE
CCCn1c(=O)c2[nH]c(-c3cnn(Cc4cccc(C(F)(F)F)c4)c3)nc2n(CC)c1=O	FALSE
CCCCN(CC)c1nc(C)nc2c1c(C)cn2-c1c(C)cc(C)cc1C	FALSE
COc1ccc(C2(O)OC(=O)C(c3ccc4c(c3)OCO4)=C2Cc2cc(OC)c(OC)c(OC)c2)cc1 (stereo not given)	FALSE
CCc1ccc(OCc2ccccc2C(=O)Nc2ccc3nc(C)cc(N)c3c2)cc1	TRUE
CC(C)NCC(O)COc1cccc2[nH]ccc12 (stereo not given)	FALSE
O=C1O[C@]2(CC[C@H](C(=O)Nc3ccn(-c4ccccc4F)n3)CC2)c2cnccc21	FALSE
N#Cc1ccc2[nH]cc(CCCCN3CCN(c4ccc5oc(C(N)=O)cc5c4)CC3)c2c1	TRUE
Cc1cccc([C@H](C)c2c[nH]cn2)c1C	FALSE
CCCCC#Cc1nc(NC)c2ncn([C@@H]3O[C@H](CO)[C@@H](O)[C@H]3O)c2n1	FALSE
N#Cc1ccc(NC(=O)Nc2ccccc2Br)c2nn[nH]c12	FALSE
Cc1c(P(=S)(c2ccccc2)c2ccccc2)n2ccccc2[n+]1C/C=C/c1ccccc1	TRUE
CC[C@@H]1CN2C(=O)N(C)c3nc(-c4ccccc4)[nH]c3C2=N1	TRUE
CN1CC(=O)N=C1NC(=O)Nc1cccc(Cl)c1	FALSE
C[C@@H](N)Cc1c[nH]cn1	FALSE
O=C(Cc1ccc(Cl)c(Cl)c1)N1CCCC[C@H]1CN1CCCC1	TRUE
O=S1(=O)c2cccc3cccc(c23)N1CCCN1CCN(c2ccc(F)cc2)CC1	TRUE
N#Cc1c[nH]c2c(C(=O)N3CCN(CCc4ccc(F)cc4)CC3)cccc12	TRUE
Cc1nc2sccn2c(=O)c1CCN1CCC(=C(c2ccc(F)cc2)c2ccc(F)cc2)CC1	TRUE
CO[C@@H]1COCC[C@@H]1N[C@@H]1CC[C@@](C(=O)N2CCc3ncc(C(F)(F)F)cc3C2)(C(C)C)C1	TRUE
CCOC(=O)c1c(C)[nH]c2ccc3c(c12)CN1CCc2cc(OC)ccc2C1O3 (stereo not given)	FALSE
NCCc1cn(S(=O)(=O)c2c(Cl)nc3sccn23)c2ccccc12	TRUE
CN1CCC(C(=O)c2cccc(NC(=O)c3c(F)cc(F)cc3F)n2)CC1	TRUE
Cc1cc(NC(=O)NCCN2CCC(O)(Cc3ccccc3)CC2)c2ccccc2n1	TRUE
Cc1c(C2=CCN(C(=O)N(C)C(C)C)CC2)nnn1-c1cccnc1F	FALSE
C[C@H](NC[C@H](O)CP(=O)(O)CC1CCCCC1)c1ccc(Cl)c(Cl)c1	FALSE
CN(C(=O)Cc1ccc(Cl)c(Cl)c1)C(CN1CCCC1)c1cccc(OCC(=O)O)c1 (stereo not given)	FALSE
COc1ccc2[nH]cc(CCNC(C)=O)c2c1	FALSE
CCCCCCCCCCCCC/C=C/[C@@H](O)[C@@H](N)COP(=O)(O)O	TRUE
FC(F)(F)c1cccc(-c2noc(-c3cc(-c4ccccc4)c(C(F)(F)F)s3)n2)c1	FALSE
Cc1nnn(-c2ccc(-c3ccc(C4(C(=O)O)CC4)cc3)cc2)c1NC(=O)O[C@H](C)c1ccccc1	FALSE
COc1ccc2cc(S(=O)(=O)N[C@H](CC(=O)N[C@H](Cc3ccc(CN4[C@H](C)CCC[C@@H]4C)cc3)C(=O)N(C)C(C)C)c3ccc4c(c3)OCO4)ccc2c1	TRUE
COC1CCN(c2cccc(-c3cc(NC(C)=O)nc(-n4nc(C)cc4C)n3)n2)CC1	TRUE
C=CCN1C[C@H](C)N([C@H](c2ccc(C(=O)N(CC)CC)cc2)c2cccc(O)c2)C[C@H]1C	TRUE
c1cc(CN2CCCNCCNCCCNCC2)ccc1CN1CCCNCCNCCCNCC1	FALSE
CC(C)NC(=O)c1ccc(C#Cc2ccncc2)cn1	TRUE
